Value source: patent US8835648B2

# STUDY SYSTEM: Smo receptor (Homo sapiens, UniProt Q99835)
# Sequence (Q99835 28-787): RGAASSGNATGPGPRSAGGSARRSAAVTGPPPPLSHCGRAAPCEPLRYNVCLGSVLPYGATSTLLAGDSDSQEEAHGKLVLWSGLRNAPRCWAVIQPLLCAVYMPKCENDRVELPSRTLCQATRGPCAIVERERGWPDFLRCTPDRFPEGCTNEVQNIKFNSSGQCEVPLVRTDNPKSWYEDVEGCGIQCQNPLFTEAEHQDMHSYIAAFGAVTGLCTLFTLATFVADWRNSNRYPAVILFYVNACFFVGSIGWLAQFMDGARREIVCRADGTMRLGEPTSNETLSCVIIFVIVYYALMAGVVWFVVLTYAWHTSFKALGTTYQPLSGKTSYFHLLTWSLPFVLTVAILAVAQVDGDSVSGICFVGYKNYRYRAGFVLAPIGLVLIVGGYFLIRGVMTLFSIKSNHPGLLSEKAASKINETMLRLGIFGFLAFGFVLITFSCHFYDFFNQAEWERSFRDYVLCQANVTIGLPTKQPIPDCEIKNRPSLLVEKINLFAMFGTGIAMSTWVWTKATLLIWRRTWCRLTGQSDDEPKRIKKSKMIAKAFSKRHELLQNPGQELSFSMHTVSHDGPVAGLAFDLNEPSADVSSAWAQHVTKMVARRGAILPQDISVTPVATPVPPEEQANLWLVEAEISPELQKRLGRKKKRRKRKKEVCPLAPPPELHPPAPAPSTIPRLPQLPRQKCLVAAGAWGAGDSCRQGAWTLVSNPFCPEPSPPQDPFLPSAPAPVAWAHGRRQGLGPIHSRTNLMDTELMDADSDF
REPORTED METRIC: pKd
Formally, pKd is defined as -log10 of the concentration c, with c in mol/L.

QUERY: Look up pKd with Smo receptor (Homo sapiens, UniProt Q99835) for this molecule: CC1=C2CC3C(CC=C4C[C@@H](O)CCC43C)C2CCC12O[C@@H]1CC(C)CN(CCNC(=O)CCCCCNC(=O)CCC3=[N+]4C(=Cc5c(C)cc(C)n5[B-]4(F)F)C=C3)C1C2C (stereo partly shown)
RESULT: 7.35
